Reference source for all entries: paper PMC5589893

# studySystem: A. fumigatus UGM (Aspergillus fumigatus)
# Construct: 8x His-tag (TEV-cleavable) (cleaved yes); made in house; host or cells: E. coli BL21 Turbo (DE3)
# Sequence (Q4W1X2 whole entry): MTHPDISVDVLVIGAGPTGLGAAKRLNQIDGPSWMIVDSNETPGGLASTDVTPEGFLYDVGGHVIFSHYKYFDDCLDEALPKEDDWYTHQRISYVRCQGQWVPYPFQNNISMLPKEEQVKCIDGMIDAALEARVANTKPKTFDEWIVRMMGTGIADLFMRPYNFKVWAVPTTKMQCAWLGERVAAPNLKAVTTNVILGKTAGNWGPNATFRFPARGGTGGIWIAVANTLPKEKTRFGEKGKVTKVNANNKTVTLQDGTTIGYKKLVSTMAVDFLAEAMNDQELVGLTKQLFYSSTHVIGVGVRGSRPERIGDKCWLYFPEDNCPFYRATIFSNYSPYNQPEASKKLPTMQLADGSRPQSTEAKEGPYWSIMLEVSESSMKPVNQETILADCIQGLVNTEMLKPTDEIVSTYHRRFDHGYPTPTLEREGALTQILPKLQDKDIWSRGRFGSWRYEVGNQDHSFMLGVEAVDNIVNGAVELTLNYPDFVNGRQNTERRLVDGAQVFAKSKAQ
# experimentalProtocol: biochemical
# Assay type: biochemical
# conditionInfo: inhibition at 200 µM vs 20 µM compound, UPLC
# Description: The reaction was quenched with the addition of 70 µL acetonitrile. […] Samples were run at a flow rate of 0.5 mL/min for 5 min. IC50 was also determined by following NADPH oxidation at 340 nm. […] Data was analyzed using KaleidaGraph software. […] Global fitting was performed with Graphpad Prims 6 software (La Jolla, CA).
endpointName: Concentration effect

Concentration effect lookup needed for N#CC(c1ccc(Cl)cc1)c1c(Cl)cc(-n2ncc(=O)[nH]c2=O)cc1Cl (stereo not shown) [Diclazuril, reference compound] , thanks.
+

Any idea what Concentration effect was measured for COc1ccc([C@@H]2CC(=O)c3c(O)cc(O)cc3O2)cc1O [(2S)-hesperetin] ?
+

Which Concentration effect value belongs to O=C(NCCO[N+](=O)[O-])c1cccnc1 [Nicorandil, reference compound] ?
-

What does the data say about its Concentration effect? Entry: O=C1C[C@@H](c2ccc(O)cc2)Oc2cc(O)cc(O)c21 [(2S)-naringenin]
+
